test system: ASFV BPP30GFP; assay type: cell-based, African swine fever virus
A collection of molecules and their measured inhibition of ASFV early infection (BPP30GFP)
Please respond with the number in % and leave the unit unwritten.

>>> obs_value("COC(=O)Nc1nc2ccc(Sc3ccccc3)cc2[nH]1 [FBZ, febendazole]")
30

Next:
The reported value for CC(C)(C)c1[nH]cnc1/C=c1\[nH]c(=O)/c(=C/c2ccccc2)[nH]c1=O [PLIN, plinabulin] in terms of inhibition of ASFV early infection (BPP30GFP) is 30

---

A collection of molecules and their measured highest non-toxic concentration
test system: Vero E6 cells; assay: Cell viability, CellTiter 96 assay, Vero E6; conditions: Vero E6, 24 h treatment
Please respond with the number in nM and leave the unit unwritten.

Guide cases for highest non-toxic concentration, answers given:
>>> obs_value("CCCSc1ccc2nc(NC(=O)OC)[nH]c2c1 [ABZ, albendazole]")
25
>>> obs_value("COc1cc2c(c(OC)c1OC)-c1ccc(OC)c(=O)cc1[C@@H](NC(C)=O)CC2 [COL, colchicine]")
25

The reported value for COc1cc2cc(c1Cl)N(C)C(=O)C[C@H](OC(=O)[C@H](C)N(C)C(C)=O)[C@]1(C)O[C@H]1[C@H](C)[C@@H]1C[C@@](O)(NC(=O)O1)[C@H](OC)/C=C/C=C(\C)C2 [MAYT, maytansine] in terms of highest non-toxic concentration is 25

The reported value for CO[C@H]1C(=O)[C@]2(C)[C@@H](OC)C[C@H]3OC[C@@]3(OC(C)=O)[C@H]2[C@H](OC(=O)c2ccccc2)[C@]2(O)C[C@H](OC(=O)[C@H](O)[C@@H](NC(=O)OC(C)(C)C)c3ccccc3)C(C)=C1C2(C)C [CTX, cabazitaxel] in terms of highest non-toxic concentration is 25

The reported value for CC(=O)O[C@@]12CO[C@@H]1C[C@H](O)[C@@]1(C)C(=O)[C@H](O)C3=C(C)[C@@H](OC(=O)[C@H](O)[C@@H](NC(=O)OC(C)(C)C)c4ccccc4)C[C@@](O)([C@@H](OC(=O)c4ccccc4)[C@H]21)C3(C)C [DTX, docetaxel] in terms of highest non-toxic concentration is 10

The reported value for COc1cc([C@@H]2c3cc4c(cc3[C@H](O)[C@H]3COC(=O)[C@H]23)OCO4)cc(OC)c1OC [PPT, podophylotoxin] in terms of highest non-toxic concentration is 50

The reported value for CC(C)(C)c1[nH]cnc1/C=c1\[nH]c(=O)/c(=C/c2ccccc2)[nH]c1=O [PLIN, plinabulin] in terms of highest non-toxic concentration is 25

---

A collection of molecules and their measured highest non-toxic concentration
test system: Huh-7 Lunet C3 cells; settings: human, 24 h
Please respond with the number in nM and leave the unit unwritten.

Guide cases for highest non-toxic concentration, answers given:
>>> obs_value("CC[C@]1(O)C[C@@H]2CN(CCc3c([nH]c4ccccc34)[C@@](C(=O)OC)(c3cc4c(cc3OC)N(C)[C@H]3[C@@](O)(C(=O)OC)[C@H](OC(C)=O)[C@]5(CC)C=CCN6CC[C@]43[C@@H]65)C2)C1")
0.05
>>> obs_value("C/C(=C\\c1csc(C)n1)[C@@H]1C[C@@H]2O[C@]2(C)CCC[C@H](C)[C@H](O)[C@@H](C)C(=O)C(C)(C)[C@@H](O)CC(=O)N1 [EPO, ixabepilone]")
0.05
>>> obs_value("C=C1C[C@@H]2CC[C@@]34C[C@H]5O[C@H]6[C@@H](O3)[C@H]3O[C@H](CC[C@@H]3O[C@H]6[C@H]5O4)CC(=O)C[C@@H]3[C@@H](OC)[C@@H](C[C@H](O)CN)O[C@H]3C[C@H]3O[C@@H](CC[C@@H]1O2)C[C@@H](C)C3=C")
0.01
>>> obs_value("CC[C@]1(O)C[C@H]2CN(CCc3c([nH]c4ccccc34)[C@@](C(=O)OC)(c3cc4c(cc3OC)N(C=O)[C@H]3[C@@](O)(C(=O)OC)[C@H](OC(C)=O)[C@]5(CC)C=CCN6CC[C@]43[C@@H]65)C2)C1")
5

Next:
The reported value for COc1ccc2c(c1OC)C(=O)O[C@@H]2[C@H]1c2c(cc3c(c2OC)OCO3)CCN1C in terms of highest non-toxic concentration is 100

---

A collection of compounds and their measured highest non-toxic concentration
tested on: Vero E6 cells; conditions: African green monkey, 24 h
Please respond with the number in nM and leave the unit unwritten.

Guide cases for highest non-toxic concentration, answers given:
>>> obs_value("CC(=O)O[C@H]1C(=O)[C@@]2(C)[C@H]([C@H](OC(=O)c3ccccc3)[C@]3(O)C[C@H](OC(=O)[C@H](O)[C@@H](NC(=O)c4ccccc4)c4ccccc4)C(C)=C1C3(C)C)[C@]1(OC(C)=O)CO[C@@H]1C[C@@H]2O [PTX, paclitaxel]")
25
>>> obs_value("CC[C@]1(O)C[C@@H]2CN(CCc3c([nH]c4ccccc34)[C@@](C(=O)OC)(c3cc4c(cc3OC)N(C)[C@H]3[C@@](O)(C(=O)OC)[C@H](OC(C)=O)[C@]5(CC)C=CCN6CC[C@]43[C@@H]65)C2)C1 [VBL, vinblastine]")
5
>>> obs_value("C=C1C[C@@H]2CC[C@@]34C[C@H]5O[C@H]6[C@@H](O3)[C@H]3O[C@H](CC[C@@H]3O[C@H]6[C@H]5O4)CC(=O)C[C@@H]3[C@@H](OC)[C@@H](C[C@H](O)CN)O[C@H]3C[C@H]3O[C@@H](CC[C@@H]1O2)C[C@@H](C)C3=C [ERIB, eribulin]")
10

The reported value for CC[C@]1(O)C[C@H]2CN(CCc3c([nH]c4ccccc34)[C@@](C(=O)OC)(c3cc4c(cc3OC)N(C=O)[C@H]3[C@@](O)(C(=O)OC)[C@H](OC(C)=O)[C@]5(CC)C=CCN6CC[C@]43[C@@H]65)C2)C1 [VCR, vincristine] in terms of highest non-toxic concentration is 1

The reported value for COc1ccc2c(c1OC)C(=O)O[C@@H]2[C@H]1c2c(cc3c(c2OC)OCO3)CCN1C [NOS, noscapine] in terms of highest non-toxic concentration is 100

---

A collection of molecules and their measured highest non-toxic concentration
test system: Vero E6 cells; details: African green monkey, 24 h
Please respond with the number in nM and leave the unit unwritten.

>>> obs_value("C/C(=C\\c1csc(C)n1)[C@@H]1C[C@@H]2O[C@]2(C)CCC[C@H](C)[C@H](O)[C@@H](C)C(=O)C(C)(C)[C@@H](O)CC(=O)N1 [EPO, ixabepilone]")
25
>>> obs_value("COC(=O)Nc1nc2ccc(Sc3ccccc3)cc2[nH]1")
50
>>> obs_value("CC[C@]1(O)C[C@@H]2CN(CCc3c([nH]c4ccccc34)[C@@](C(=O)OC)(c3cc4c(cc3OC)N(C)[C@H]3[C@@](O)(C(N)=O)[C@H](O)[C@]5(CC)C=CCN6CC[C@]43[C@@H]65)C2)C1")
100

Next:
The reported value for COC(=O)Nc1nc2ccc(C(=O)c3ccccc3)cc2[nH]1 in terms of highest non-toxic concentration is 10

---

system: Vero cells; details: African green monkey, 24 h
Measured Attribute: highest non-toxic concentration (nM)
Please respond with the number in nM and leave the unit unwritten.

Guide cases for highest non-toxic concentration, answers given:
>>> obs_value("C/C(=C\\c1csc(C)n1)[C@@H]1C[C@@H]2O[C@]2(C)CCC[C@H](C)[C@H](O)[C@@H](C)C(=O)C(C)(C)[C@@H](O)CC(=O)N1 [EPO, ixabepilone]")
25
>>> obs_value("COC(=O)Nc1nc2ccc(C(=O)c3ccccc3)cc2[nH]1")
10
>>> obs_value("COC(=O)Nc1nc2ccc(Sc3ccccc3)cc2[nH]1")
75
>>> obs_value("CC(=O)O[C@H]1C(=O)[C@@]2(C)[C@H]([C@H](OC(=O)c3ccccc3)[C@]3(O)C[C@H](OC(=O)[C@H](O)[C@@H](NC(=O)c4ccccc4)c4ccccc4)C(C)=C1C3(C)C)[C@]1(OC(C)=O)CO[C@@H]1C[C@@H]2O")
25
>>> obs_value("CC[C@]1(O)C[C@@H]2CN(CCc3c([nH]c4ccccc34)[C@@](C(=O)OC)(c3cc4c(cc3OC)N(C)[C@H]3[C@@](O)(C(=O)OC)[C@H](OC(C)=O)[C@]5(CC)C=CCN6CC[C@]43[C@@H]65)C2)C1")
25

# lookup: CC[C@]1(O)C[C@@H]2CN(CCc3c([nH]c4ccccc34)[C@@](C(=O)OC)(c3cc4c(cc3OC)N(C)[C@H]3[C@@](O)(C(N)=O)[C@H](O)[C@]5(CC)C=CCN6CC[C@]43[C@@H]65)C2)C1 on Vero cells, highest non-toxic concentration = 100

---

system: Huh-7 Lunet C3 cells; experiment: Cell viability, CellTiter 96 assay, Huh-7 Lunet C3; settings: Huh-7 Lunet C3, 24 h treatment, over 80% cell viability
Measured Attribute: log10(highest non-toxic concentration) (log10 of the value in nM)
Parameter value (number): base-10 log of highest non-toxic concentration in nM.

>>> obs_value("COc1cc2cc(c1Cl)N(C)C(=O)C[C@H](OC(=O)[C@H](C)N(C)C(C)=O)[C@]1(C)O[C@H]1[C@H](C)[C@@H]1C[C@@](O)(NC(=O)O1)[C@H](OC)/C=C/C=C(\\C)C2 [MAYT, maytansine]")
-1.00
>>> obs_value("COc1cc2c(c(OC)c1OC)-c1ccc(OC)c(=O)cc1[C@@H](NC(C)=O)CC2 [COL, colchicine]")
-0.70
>>> obs_value("CC(=O)O[C@@]12CO[C@@H]1C[C@H](O)[C@@]1(C)C(=O)[C@H](O)C3=C(C)[C@@H](OC(=O)[C@H](O)[C@@H](NC(=O)OC(C)(C)C)c4ccccc4)C[C@@](O)([C@@H](OC(=O)c4ccccc4)[C@H]21)C3(C)C [DTX, docetaxel]")
-1.52
>>> obs_value("CCCSc1ccc2nc(NC(=O)OC)[nH]c2c1 [ABZ, albendazole]")
0.00
>>> obs_value("COc1cc([C@@H]2c3cc4c(cc3[C@H](O)[C@H]3COC(=O)[C@H]23)OCO4)cc(OC)c1OC [PPT, podophylotoxin]")
-0.70

The reported value for CO[C@H]1C(=O)[C@]2(C)[C@@H](OC)C[C@H]3OC[C@@]3(OC(C)=O)[C@H]2[C@H](OC(=O)c2ccccc2)[C@]2(O)C[C@H](OC(=O)[C@H](O)[C@@H](NC(=O)OC(C)(C)C)c3ccccc3)C(C)=C1C2(C)C [CTX, cabazitaxel] in terms of log10(highest non-toxic concentration) is -2.00

The reported value for CC(C)(C)c1[nH]cnc1/C=c1\[nH]c(=O)/c(=C/c2ccccc2)[nH]c1=O [PLIN, plinabulin] in terms of log10(highest non-toxic concentration) is -0.30

From: paper PMC8998746
